Hello, the source for this data is patent US20230203146A1, in case you need it.

In this section, each of the binders is paired with its reported fold improvement (off-rate against VHH 00027).
Target: T1, recombinant human Ang2-FLD (human, UniProt O15123 275-496, limits assumed)
T1 construct: domain: FLD; not used
T1 sequence (looked up): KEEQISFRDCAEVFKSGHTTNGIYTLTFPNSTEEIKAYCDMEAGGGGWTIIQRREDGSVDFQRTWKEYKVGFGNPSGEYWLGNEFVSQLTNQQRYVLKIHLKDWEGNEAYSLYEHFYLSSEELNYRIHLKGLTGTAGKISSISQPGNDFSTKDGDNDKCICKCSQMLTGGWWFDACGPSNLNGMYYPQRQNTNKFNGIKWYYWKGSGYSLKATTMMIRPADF
Experiment: ProteOn off-rate assay, periplasmic extract 1:10 over coated human Ang2-FLD
Respond numerically; units are fold and should not be typed.

Some solved entries appear below for comparison.
BINDER	MEAS_VALUE
VHH 65F03 (VHH, periplasmic extract; not shown: C-terminal c-myc tag and His6 tag) VHH: EVQMVESGGGLVQAGGSLRLSCAASGLTLDDYAIGWFRQAPGKEREGVSSIRDNDGSTYYADSVKGRFTISSDNDKNTVYLQMNGLKPEDTAVYYCAAVPAGRLRFGEQWYPIYEYDAWGQGTLVTVSS	8.9
VHH 64G11 (VHH, periplasmic extract; not shown: C-terminal c-myc tag and His6 tag) VHH: EVQLVESGGGLVQAGGSLRLSCAASGITLDDYAIGWFRQAPGKERVGVSSIRDNDGSTYYADSVKGRFTISSDNDKNTVYLQMNSLKPEDTAVYYCAAVPAGRLRFGEQWYPIYEYDAWGQGTLVTVSS	9.6
VHH 64F03 (VHH, periplasmic extract; not shown: C-terminal c-myc tag and His6 tag) VHH: EVQLVESGGGLVQAGGSLRLSCAVSGITLDDYAVGWFRQAPGKEREGVSTIRDNDGSTYYADSVKGRFTISSDNDKNTVYLQMNSLKPKDTAVYYCAAVPAGRLRFGEQWYPIYEYDAWGQGTLVTVSS	10.8

Attention now turns to another entry.
Name the recorded fold improvement (off-rate against VHH 00027) of the binder listed here: VHH 64E12 (VHH, periplasmic extract; not shown: C-terminal c-myc tag and His6 tag) VHH: EVQLVESGGGLVQAGGSLRLSCAVSGFTLDDYAIGWFRQAPGKEREGVSSIRDNDGSTYYADSVKGRSTISSDNDKNTVYLQMNSLKPEDTAVYYCAAVPAGRLRFGEQWYPIYEYDAWGQGTLVTVSS
8.7
